Measured values drawn from patent US20250296960A1 for this set.

# measuredOn: T1, human glucose-dependent insulinotropic polypeptide receptor (GIPR), expressed on CHO-K1 cells (human, UniProt P48546 22-466)
# T1 sequence (looked up): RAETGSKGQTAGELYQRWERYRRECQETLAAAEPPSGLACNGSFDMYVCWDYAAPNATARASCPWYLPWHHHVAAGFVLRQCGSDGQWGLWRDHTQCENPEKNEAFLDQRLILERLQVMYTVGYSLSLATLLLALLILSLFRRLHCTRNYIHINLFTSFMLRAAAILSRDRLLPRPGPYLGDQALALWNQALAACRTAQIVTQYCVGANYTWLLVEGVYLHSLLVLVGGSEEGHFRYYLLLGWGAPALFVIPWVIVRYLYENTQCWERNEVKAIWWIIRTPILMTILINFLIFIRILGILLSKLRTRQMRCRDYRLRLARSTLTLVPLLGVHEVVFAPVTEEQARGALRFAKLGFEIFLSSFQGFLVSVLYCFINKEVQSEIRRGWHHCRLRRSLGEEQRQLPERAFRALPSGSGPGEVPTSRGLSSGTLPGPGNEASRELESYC
# protocolDetails: cell-based or functional assay
Numbered stars: 1 amine (or outer) side, 2 acyl side, 3 side chain; on linkers, the order of the positions; unused ones are H or OH. Square brackets hold non-standard residues; d marks the D form. Side chains are listed from the residue outwards. Ends that are not written are not given here. * marks the point of attachment. C18 = C18 fatty acid (C16-C22 fatty acids conjugated via γGlu/8-amino-3,6-dioxaoctanoic acid spacers); methoxinine = methoxinine (m*), COCC[C@H](N[*:1])C(=O)[*:2]; Biotin = O=C1N[C@H]2[C@H](CS[C@H]2CCCCC(=O)*)N1; γGlu = O=C(O)[C@H](CCC(=O)[*:2])N[*:1]; AEEA = NCCOCCOCC(=O)O; Aib = CC(C)(N)C(=O)O
measuredAttribute: Ratio vs. GLP-1R

Observe how each entry below is paired with its result.
Y[Aib]QGTFTSDYSK([AEEA-AEEA-γGlu-C18])LLDKMMQRDFVQWLLEGGPSSGAPPPS-NH2 (not fully specified (residue 16); printed as YAibQGT FTSDY SK*LLD B*MMQR DFVQW LLEGG PSSGA PPPS) [SEQ ID NO. 86] ... 639
Y[Aib]QGTFTSDYSK([AEEA-AEEA-γGlu-C18])LLDYMMQ[Aib]DFVQWLLEGGPSSGAPPPS-NH2 [SEQ ID NO. 84] ... 470
Y[Aib]QGTFTSDYSK([AEEA-AEEA-γGlu-C18])YLDYMMQRDFVK(Biotin)WLLEGGPSSGAPPPS (ends and bridges not checked) [SEQ ID NO. 97] ... 117

Please find the next binder below.
Input: I have this binder here, Y[Aib]QGTFTSDYSK([AEEA-AEEA-γGlu-C18])LLDY[methoxinine][methoxinine]QRDFVQWLLEGGPSSGAPPPS-NH2 [SEQ ID NO. 96] , and I need its recorded Ratio vs. GLP-1R.
Output: 56
